# Test system: SF-539 CNS
# Test: NCI-60 one-dose screen, 48 h
# Conditions used: 10 µM
This is part of a sample that, as a whole, favours compounds with a hit. Of some 83,000 tested, about 20% had one in any assay. The source made the active and inactive calls. The calls were made as follows: active = growth percent below 10; inactive = the rest.
Reply using exactly one outcome from 1 = active, -1 = inactive

The examples below pair each entry with its known result.
{"columns": ["Compound", "Class"],
 "data": [
  ["CC(=O)c1ccc2c(ccc3ccccc32)c1", -1],
  ["CC(C)(O)C#CC#CC(C)(C)O", -1],
  ["Nc1nc(OCc2ccccc2)c2[nH]cnc2n1", -1],
  ["N#CCCc1ccc(O)cc1", -1],
  ["O=c1[nH][nH]c(=O)c2cc([N+](=O)[O-])ccc12", -1]
]}

QUERY: State the result this test recorded for `N#CCc1ccc([N+](=O)[O-])cc1` .
RESULT: -1

QUERY: Record: `CC(=O)Nc1c(C)cc(C)cc1C`
RESULT: -1

QUERY: Record: `O=C(O)[C@@H]1[C@H]2C[C@H]3c4[nH]c5ccccc5c4CCN3C[C@@H]2CC[C@@H]1O`
RESULT: -1

QUERY: Record: `CCCCNC(=O)C(=O)NCCCC`
RESULT: -1

QUERY: Record: `C=CCc1cc(C(C)=O)cc(OC)c1O`
RESULT: -1

###

# System: RPMI-8226 leukemia
# Test: NCI-60 one-dose screen, 48 h (100 = growth as untreated, 0 = no growth, -100 = all killed)
# Conditions used: 10 µM
This is part of a sample that, as a whole, favours compounds with a hit. Of some 83,000 tested, about 20% had one in any assay.
Attribute measured: growth (%)
Report the value in % with no unit label.

Sample records with growth:
{"columns": ["Compound", "growth (%)"],
 "data": [
  ["COc1cccc(Sc2ccc([N+](=O)[O-])c3no[n+]([O-])c23)c1", 6.99],
  ["Cc1cc2nc(CC(=O)c3ccccc3)c(=O)[nH]c2cc1C", 103],
  ["O=C1N(C[P+](c2ccccc2)(c2ccccc2)c2ccccc2)CCCN1C[P+](c1ccccc1)(c1ccccc1)c1ccccc1", 115]
]}

QUERY: Request the reported growth associated with COc1cc2c(cc1O)CC[C@@H]1C2CC[C@@]2(C)C1CC[C@@H]2O (stereo not given in full)
RESULT: 0

QUERY: Record: `Nc1ccc(NC(=O)c2cccc(N)c2)cc1`
RESULT: 94.5

QUERY: Record: CC(O)COc1ccc(-c2ccccc2)cc1 (stereo not given)
RESULT: 97.7

QUERY: Record: `CN(C)c1ccc2oc(=O)c3ccccc3c2c1`
RESULT: 74.1

QUERY: Record: `Nc1nc(N)c2cc(S(=O)(=O)c3cccc(C(F)(F)F)c3)ccc2n1`
RESULT: 63.1

QUERY: Record: `CCN=c1cc2sc3cc(NCC)c(C)cc3nc-2cc1C`
RESULT: 2.43

###

Consider the following molecules and their measured growth readings.
# System: KM12 colon
# Test: NCI-60 one-dose screen, 48 h (100 = growth as untreated, 0 = no growth, -100 = all killed)
# Conditions used: 10 µM
This is part of a sample that, as a whole, favours compounds with a hit. Of some 83,000 tested, about 20% had one in any assay.
Report the value in % with no unit label.

Sample records with growth:
{"columns": ["Molecule", "growth / %"],
 "data": [
  ["CN(c1ccccc1)c1ncnc2c1ncn2C", 108],
  ["CC(=O)Nc1cccc(Cl)c1C", 98.9],
  ["CCC(C#N)(CC)c1ccccc1", 106],
  ["Cc1ncc(C#N)c(N)n1", 104],
  ["CN(C)CCN(Cc1ccccc1)c1ccccc1", 113],
  ["CC(C)OC(=O)c1cc(NC(=S)OC(C)C)ccc1Cl", 59.5]
]}

QUERY: Request the reported growth associated with `CNc1nc(NC)c2cn[nH]c2n1`
RESULT: 105

QUERY: Record: `COc1cc(-c2ccc(NC(=O)NC3CC3)c(OC)c2)ccc1NC(=O)NC1CC1`
RESULT: 71.8

QUERY: Record: Cc1ccccc1C1N=C2Oc3ccccc3C=C2C(=O)N1 (stereo not given)
RESULT: 64.8

QUERY: Record: `CN(C)c1ccc2oc(=O)c3ccccc3c2c1`
RESULT: 90.9

QUERY: Record: `Nc1nc(N)c2cc(S(=O)(=O)c3cccc(C(F)(F)F)c3)ccc2n1`
RESULT: 53.1
